The origin of these recorded values is patent US20240108702A1.

- Test description: in vivo
- Condition info: both, cynomolgus monkey, iv, 15 mg/kg/day, CL, cynomolgus, 15 mg/kg/day i.v., Day 10, mean
Where a SMILES comes first, the peptide text is derived from it. Bridges are numbered along the chain shown (N, C = ends).
Observed property: clearance (mL/min/kg)
// units = mL/min/kg; emit number, no label

Recorded clearance for CC[C@H](C)[C@@H]1NC(=O)[C@@H]2CSSC[C@H](NC(=O)[C@H](CCCNC(=N)N)NC(=O)[C@@H]3CSSC[C@H](NC1=O)C(=O)N[C@@H]([C@@H](C)O)C(=O)N[C@@H](CCCNC(=N)N)C(=O)NCC(=O)N[C@@H](Cc1ccccc1)C(=O)N3)C(=O)N[C@@H](CC(C)C)C(=O)N[C@H]1CSSC[C@H](NC(=O)[C@H](C(C)C)NC(=O)CNC(=O)[C@H](CCCNC(=N)N)NC(=O)[C@H](CCCNC(=N)N)NC1=O)C(=O)N[C@@H](CCCNC(=N)N)C(=O)N2 [Peptide 1] (cyclo(GFCRCLCRRGVCRCICTR); disulfide 3-16, 5-14, 7-12) , please?
1.72

* * *

- Test description: in vivo
- Condition info: both, cynomolgus monkey, iv, 1 mg/kg, Vss, cynomolgus, 1 mg/kg i.v., Day 1, mean
Where a SMILES comes first, the peptide text is derived from it. Bridges are numbered along the chain shown (N, C = ends).
Observed property: Vd (L/kg)
// units = L/kg; emit number, no label

Recorded Vd for CC[C@H](C)[C@@H]1NC(=O)[C@@H]2CSSC[C@H](NC(=O)[C@H](CCCNC(=N)N)NC(=O)[C@@H]3CSSC[C@H](NC1=O)C(=O)N[C@@H]([C@@H](C)O)C(=O)N[C@@H](CCCNC(=N)N)C(=O)NCC(=O)N[C@@H](Cc1ccccc1)C(=O)N3)C(=O)N[C@@H](CC(C)C)C(=O)N[C@H]1CSSC[C@H](NC(=O)[C@H](C(C)C)NC(=O)CNC(=O)[C@H](CCCNC(=N)N)NC(=O)[C@H](CCCNC(=N)N)NC1=O)C(=O)N[C@@H](CCCNC(=N)N)C(=O)N2 [Peptide 1] (cyclo(GFCRCLCRRGVCRCICTR); disulfide 3-16, 5-14, 7-12) , please?
0.486

* * *

- Test description: in vivo
- Condition info: both, cynomolgus monkey, iv, 5 mg/kg, Cmax, cynomolgus, 5 mg/kg i.v., Day 1, mean
Where a SMILES comes first, the peptide text is derived from it. Bridges are numbered along the chain shown (N, C = ends).
Observed property: Cmax (ng/mL)
// units = ng/mL; emit number, no label

Recorded Cmax for CC[C@H](C)[C@@H]1NC(=O)[C@@H]2CSSC[C@H](NC(=O)[C@H](CCCNC(=N)N)NC(=O)[C@@H]3CSSC[C@H](NC1=O)C(=O)N[C@@H]([C@@H](C)O)C(=O)N[C@@H](CCCNC(=N)N)C(=O)NCC(=O)N[C@@H](Cc1ccccc1)C(=O)N3)C(=O)N[C@@H](CC(C)C)C(=O)N[C@H]1CSSC[C@H](NC(=O)[C@H](C(C)C)NC(=O)CNC(=O)[C@H](CCCNC(=N)N)NC(=O)[C@H](CCCNC(=N)N)NC1=O)C(=O)N[C@@H](CCCNC(=N)N)C(=O)N2 [Peptide 1] (cyclo(GFCRCLCRRGVCRCICTR); disulfide 3-16, 5-14, 7-12) , please?
10700

* * *

- Test description: Single i.v. bolus PK in a vervet monkey (pilot safety study)
- Assay type: in vivo, vervet/African green monkey (Chlorocebus aethiops sabaeus)
- Condition info: male, monkey, plasma, iv, single 3 mg/kg i.v. bolus
Where a SMILES comes first, the peptide text is derived from it. Bridges are numbered along the chain shown (N, C = ends).
Observed property: Cmax (ng/mL)
// units = ng/mL; emit number, no label

Recorded Cmax for CC[C@H](C)[C@@H]1NC(=O)[C@@H]2CSSC[C@H](NC(=O)[C@H](CCCNC(=N)N)NC(=O)[C@@H]3CSSC[C@H](NC1=O)C(=O)N[C@@H]([C@@H](C)O)C(=O)N[C@@H](CCCNC(=N)N)C(=O)NCC(=O)N[C@@H](Cc1ccccc1)C(=O)N3)C(=O)N[C@@H](CC(C)C)C(=O)N[C@H]1CSSC[C@H](NC(=O)[C@H](C(C)C)NC(=O)CNC(=O)[C@H](CCCNC(=N)N)NC(=O)[C@H](CCCNC(=N)N)NC1=O)C(=O)N[C@@H](CCCNC(=N)N)C(=O)N2 [Peptide 1] (cyclo(GFCRCLCRRGVCRCICTR); disulfide 3-16, 5-14, 7-12) , please?
5190

* * *

- Test description: in vivo
- Condition info: both, cynomolgus monkey, iv, 3 mg/kg, AUCτ, cynomolgus, 3 mg/kg i.v., Day 1, mean
Where a SMILES comes first, the peptide text is derived from it. Bridges are numbered along the chain shown (N, C = ends).
Observed property: AUC (ng·h/mL)
// units = ng·h/mL; emit number, no label

Recorded AUC for CC[C@H](C)[C@@H]1NC(=O)[C@@H]2CSSC[C@H](NC(=O)[C@H](CCCNC(=N)N)NC(=O)[C@@H]3CSSC[C@H](NC1=O)C(=O)N[C@@H]([C@@H](C)O)C(=O)N[C@@H](CCCNC(=N)N)C(=O)NCC(=O)N[C@@H](Cc1ccccc1)C(=O)N3)C(=O)N[C@@H](CC(C)C)C(=O)N[C@H]1CSSC[C@H](NC(=O)[C@H](C(C)C)NC(=O)CNC(=O)[C@H](CCCNC(=N)N)NC(=O)[C@H](CCCNC(=N)N)NC1=O)C(=O)N[C@@H](CCCNC(=N)N)C(=O)N2 [Peptide 1] (cyclo(GFCRCLCRRGVCRCICTR); disulfide 3-16, 5-14, 7-12) , please?
10300

* * *

- Test description: in vivo
- Condition info: both, cynomolgus monkey, 15 mg/kg
Where a SMILES comes first, the peptide text is derived from it. Bridges are numbered along the chain shown (N, C = ends).
Observed property: half-life (min)
// units = min; emit number, no label

Recorded half-life for CC[C@H](C)[C@@H]1NC(=O)[C@@H]2CSSC[C@H](NC(=O)[C@H](CCCNC(=N)N)NC(=O)[C@@H]3CSSC[C@H](NC1=O)C(=O)N[C@@H]([C@@H](C)O)C(=O)N[C@@H](CCCNC(=N)N)C(=O)NCC(=O)N[C@@H](Cc1ccccc1)C(=O)N3)C(=O)N[C@@H](CC(C)C)C(=O)N[C@H]1CSSC[C@H](NC(=O)[C@H](C(C)C)NC(=O)CNC(=O)[C@H](CCCNC(=N)N)NC(=O)[C@H](CCCNC(=N)N)NC1=O)C(=O)N[C@@H](CCCNC(=N)N)C(=O)N2 [Peptide 1] (cyclo(GFCRCLCRRGVCRCICTR); disulfide 3-16, 5-14, 7-12) , please?
2830

* * *

- Test description: in vivo
- Condition info: both, Sprague-Dawley, rat, iv, 10 mg/kg/day
Where a SMILES comes first, the peptide text is derived from it. Bridges are numbered along the chain shown (N, C = ends).
Observed property: clearance (mL/min/kg)
// units = mL/min/kg; emit number, no label

Recorded clearance for CC[C@H](C)[C@@H]1NC(=O)[C@@H]2CSSC[C@H](NC(=O)[C@H](CCCNC(=N)N)NC(=O)[C@@H]3CSSC[C@H](NC1=O)C(=O)N[C@@H]([C@@H](C)O)C(=O)N[C@@H](CCCNC(=N)N)C(=O)NCC(=O)N[C@@H](Cc1ccccc1)C(=O)N3)C(=O)N[C@@H](CC(C)C)C(=O)N[C@H]1CSSC[C@H](NC(=O)[C@H](C(C)C)NC(=O)CNC(=O)[C@H](CCCNC(=N)N)NC(=O)[C@H](CCCNC(=N)N)NC1=O)C(=O)N[C@@H](CCCNC(=N)N)C(=O)N2 [Peptide 1] (cyclo(GFCRCLCRRGVCRCICTR); disulfide 3-16, 5-14, 7-12) , please?
4.88

* * *

- Test description: Single-dose i.v. bolus PK study in mice
- Format: in vivo, CD-1 mice
- Condition info: both sexes, CD-1, mouse, plasma, iv, single 5 mg/kg i.v. bolus, read-out: Vss
Where a SMILES comes first, the peptide text is derived from it. Bridges are numbered along the chain shown (N, C = ends).
Observed property: Vd

Recorded Vd for CC[C@H](C)[C@@H]1NC(=O)[C@@H]2CSSC[C@H](NC(=O)[C@H](CCCNC(=N)N)NC(=O)[C@@H]3CSSC[C@H](NC1=O)C(=O)N[C@@H]([C@@H](C)O)C(=O)N[C@@H](CCCNC(=N)N)C(=O)NCC(=O)N[C@@H](Cc1ccccc1)C(=O)N3)C(=O)N[C@@H](CC(C)C)C(=O)N[C@H]1CSSC[C@H](NC(=O)[C@H](C(C)C)NC(=O)CNC(=O)[C@H](CCCNC(=N)N)NC(=O)[C@H](CCCNC(=N)N)NC1=O)C(=O)N[C@@H](CCCNC(=N)N)C(=O)N2 [Peptide 1] (cyclo(GFCRCLCRRGVCRCICTR); disulfide 3-16, 5-14, 7-12) , please?
1.05 L/kg
